Biological target: Tyrosine-protein kinase HCK (Homo sapiens) (UniProt P08631);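 further: values are averaged percent inhibition of HCK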
Sequence (P08631 2-526 limits assumed): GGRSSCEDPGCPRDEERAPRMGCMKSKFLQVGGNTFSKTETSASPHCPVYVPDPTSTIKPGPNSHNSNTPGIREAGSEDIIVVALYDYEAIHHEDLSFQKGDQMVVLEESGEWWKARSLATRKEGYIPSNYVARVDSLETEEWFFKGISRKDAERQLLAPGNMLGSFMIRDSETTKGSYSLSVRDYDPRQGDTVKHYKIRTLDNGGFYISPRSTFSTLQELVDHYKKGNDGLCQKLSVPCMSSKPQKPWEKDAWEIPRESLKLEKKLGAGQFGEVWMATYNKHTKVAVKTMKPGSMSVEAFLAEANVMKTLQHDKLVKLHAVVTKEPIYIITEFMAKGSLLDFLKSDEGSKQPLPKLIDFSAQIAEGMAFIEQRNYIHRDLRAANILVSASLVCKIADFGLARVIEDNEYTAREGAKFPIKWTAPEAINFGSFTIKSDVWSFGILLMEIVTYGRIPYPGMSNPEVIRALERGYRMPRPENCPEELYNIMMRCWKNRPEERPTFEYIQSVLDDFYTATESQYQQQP
Settings: at 1 µM
Recorded Endpoint: inhibition (%)
Lab book: enter the figure in %, no units written.

Need inhibition of CN(c1ccc(NC(=O)Nc2c(Cl)cccc2Cl)cc1)c1ccnc(Nc2cccc(CS(C)(=O)=O)c2)n1 , thanks.
48.9

Need inhibition of NC(=O)c1cc(-c2ccncc2)cc(-c2ccccc2)c1N , thanks.
43.7

Need inhibition of CCS(=O)(=O)c1ccc(OC)c(Nc2ncc(-c3ccccc3Cl)o2)c1 , thanks.
11.8

Need inhibition of O=C(Nc1n[nH]c2cc(-c3ccccc3)ccc12)C1CC1 , thanks.
15.8

Need inhibition of Nc1nccc(-c2c(-c3ccc(F)cc3)ncn2C2CCC(O)CC2)n1 (configuration not stated) , thanks.
12.7

Need inhibition of COc1cccc(/C=N/Nc2ncnc3c2cnn3-c2cccc(OC)c2)c1 , thanks.
6.95

Need inhibition of COc1ccc(C2=C(N3CCc4ccccc43)C(=O)NC2=O)cc1 , thanks.
9.54

Need inhibition of Fc1ccc(-c2nc3n(c2-c2ccncc2)CCS3)cc1 , thanks.
7.02

Need inhibition of Cc1ccc(C(=O)NC(C)C)cc1-c1ccc(C(=O)NCC2CC2)cc1 , thanks.
-1.19

Need inhibition of NC(=O)c1ccc(Oc2nccc(-c3c(-c4ccc(F)cc4)ncn3C3CCNCC3)n2)cc1 , thanks.
8.21

Need inhibition of COc1cc(Nc2ncc(-c3ccccc3)o2)cc(OC)c1OC , thanks.
31.2

Need inhibition of C#Cc1cccc(Nc2ncnc3ccc(OCCCCNCCS(C)(=O)=O)cc23)c1 , thanks.
20.5

Need inhibition of COc1cc(C)c(N(C)C(=O)CN(C)C)cc1Nc1nc(Nc2cccc(F)c2C(N)=O)c2cc[nH]c2n1 , thanks.
4.78

Need inhibition of CCc1ccc(Oc2nccc(-c3c(-c4ccc(F)cc4)ncn3C3CCNCC3)n2)cc1 , thanks.
8.91

Need inhibition of CCN(CC)Cc1ccc(Nc2nccc(-c3cnn4ncccc34)n2)cc1 , thanks.
13.5

Need inhibition of C/C(Nc1ccc(S(N)(=O)=O)cc1)=C1/C(=O)Nc2ccccc21 , thanks.
6.24

Need inhibition of N#Cc1ccc(Oc2nccc(-c3c(-c4ccc(F)cc4)ncn3C3CCNCC3)n2)cc1 , thanks.
5.1

Need inhibition of COc1ccc(-c2ccc3c(NC(=O)C4CC4)n[nH]c3n2)cc1 , thanks.
5.16

Need inhibition of Fc1ccc(-c2ncn(C3CCNCC3)c2-c2ccnc(Oc3ccc(F)c(F)c3)n2)cc1 , thanks.
4.68

Need inhibition of c1ccc(Oc2ccc(Nc3ncc(-c4ccccc4)o3)cc2)cc1 , thanks.
5.01

Need inhibition of NS(=O)(=O)c1ccc(N/N=C2\C(=O)Nc3ccc(C(=O)NCCCn4ccnc4)cc32)cc1 , thanks.
17.8

Need inhibition of CS(=O)(=O)CCNCc1cc(-c2cc3c(Nc4ccc(OCc5cccc(F)c5)c(Cl)c4)ncnc3s2)cs1 , thanks.
7.87

---

Test system: Mast/stem cell growth factor receptor Kit (Homo sapiens), P10721 [V560G]
Sequence (P10721 whole entry V560G): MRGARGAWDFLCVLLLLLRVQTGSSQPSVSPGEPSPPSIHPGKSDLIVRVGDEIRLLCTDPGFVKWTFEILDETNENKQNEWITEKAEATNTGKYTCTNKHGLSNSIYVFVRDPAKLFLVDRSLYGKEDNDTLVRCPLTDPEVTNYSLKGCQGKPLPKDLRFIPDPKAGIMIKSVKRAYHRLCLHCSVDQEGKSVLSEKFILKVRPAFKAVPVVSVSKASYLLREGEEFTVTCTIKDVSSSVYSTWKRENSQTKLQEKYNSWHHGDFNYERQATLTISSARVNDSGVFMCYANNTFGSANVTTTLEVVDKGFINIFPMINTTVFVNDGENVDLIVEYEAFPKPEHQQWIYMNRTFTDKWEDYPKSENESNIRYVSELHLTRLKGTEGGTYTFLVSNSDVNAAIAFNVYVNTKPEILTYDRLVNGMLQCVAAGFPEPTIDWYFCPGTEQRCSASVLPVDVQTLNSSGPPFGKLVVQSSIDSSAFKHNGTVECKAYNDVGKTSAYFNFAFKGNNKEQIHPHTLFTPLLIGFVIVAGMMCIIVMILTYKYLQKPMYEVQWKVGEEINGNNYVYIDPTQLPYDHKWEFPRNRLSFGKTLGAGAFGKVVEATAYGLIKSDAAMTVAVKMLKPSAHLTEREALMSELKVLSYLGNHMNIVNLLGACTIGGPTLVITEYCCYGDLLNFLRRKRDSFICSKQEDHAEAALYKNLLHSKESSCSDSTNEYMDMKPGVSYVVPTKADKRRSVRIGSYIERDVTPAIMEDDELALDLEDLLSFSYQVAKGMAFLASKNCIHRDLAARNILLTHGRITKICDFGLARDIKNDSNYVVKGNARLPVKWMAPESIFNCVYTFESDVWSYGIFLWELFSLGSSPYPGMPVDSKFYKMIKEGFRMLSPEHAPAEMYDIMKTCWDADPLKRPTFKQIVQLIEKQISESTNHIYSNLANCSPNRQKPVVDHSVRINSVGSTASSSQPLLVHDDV
Details: at 0.1 µM
Would you mind telling me the reported inhibition of each entry?
Lab book: enter the figure in %, no units written.

Need inhibition of COc1ccc2cc(-c3c(-c4ccncc4)nc(-c4ccc([S+](C)[O-])cc4C)n3C)ccc2c1 (stereo not given) , thanks.
4.53

Need inhibition of C[C@@H](Oc1cc(-n2cnc3ccc(OC4CCN(C)CC4)cc32)sc1C(N)=O)c1ccccc1Cl , thanks.
-4.05

Need inhibition of O=C(Nc1n[nH]c2cc(-c3cc(F)ccc3F)ccc12)C1CC1 , thanks.
1.22

Need inhibition of COc1ccc2ncn(-c3cc(O[C@H](C)c4ccccc4Cl)c(C(N)=O)s3)c2c1 , thanks.
-1.68

Need inhibition of CCS(=O)(=O)c1ccc(OC)c(Nc2ncc(-c3cccc(-c4ccccc4F)c3)o2)c1 , thanks.
4.79

Need inhibition of Fc1ccc(-c2ncn(C3CCNCC3)c2-c2ccnc(Oc3ccc(Oc4ccccc4)cc3)n2)cc1 , thanks.
-2.65

Need inhibition of COC(=O)Nc1nc2ccc(Sc3ccc(NC(=O)Nc4cc(C(F)(F)F)ccc4F)cc3)cc2[nH]1 , thanks.
2.79

Need inhibition of N#Cc1ccc(Oc2nccc(-c3c(-c4ccc(F)cc4)ncn3C3CCNCC3)n2)cc1 , thanks.
-0.39

Need inhibition of CCc1cccc(CC)c1/C=C/c1cncc(C(=O)NC)c1 , thanks.
-2.51

Need inhibition of O=C(Nc1n[nH]c2nc(-c3ccco3)ccc12)C1CC1 , thanks.
3.13
